biological target: H-2D^b (Mus musculus, UniProt P01899); test: MHC peptide-binding assay, purified H-2D^b
Sequence (P01899 25-362, one chain of several): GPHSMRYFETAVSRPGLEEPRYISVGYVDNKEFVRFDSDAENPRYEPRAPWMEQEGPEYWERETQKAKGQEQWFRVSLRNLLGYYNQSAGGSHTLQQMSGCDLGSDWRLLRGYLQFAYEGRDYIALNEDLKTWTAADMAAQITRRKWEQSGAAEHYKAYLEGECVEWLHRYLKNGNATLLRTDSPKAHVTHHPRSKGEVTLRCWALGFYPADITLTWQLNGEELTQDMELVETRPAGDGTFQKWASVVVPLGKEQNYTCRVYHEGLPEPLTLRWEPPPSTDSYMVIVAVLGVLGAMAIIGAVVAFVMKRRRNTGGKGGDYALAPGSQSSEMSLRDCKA
Ends that are not written are not given here.
recorded-metric: IC50

Consider the worked cases shown below.
[
  {
    "ordered-residues": "VSWTMKIL [Epitope E451-458]",
    "value-reported": "< 2000 nM"
  },
  {
    "ordered-residues": "RALIFILL [Epitope M60-67]",
    "value-reported": "< 2000 nM"
  }
]

Input: Could you tell me which IC50 is on file for MTMRCIGI [Epitope E-2-6] ?
Output: < 2000 nM

---

Quick list: pIC50 per entry.
target: H-2K^b (Mus musculus); assay: MHC peptide-binding assay, purified H-2K^b
Sequence (P61769 21-119): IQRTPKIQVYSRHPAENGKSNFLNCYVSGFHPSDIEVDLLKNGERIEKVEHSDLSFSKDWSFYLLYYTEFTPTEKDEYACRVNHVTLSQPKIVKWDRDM
Sequence (P01901 22-369): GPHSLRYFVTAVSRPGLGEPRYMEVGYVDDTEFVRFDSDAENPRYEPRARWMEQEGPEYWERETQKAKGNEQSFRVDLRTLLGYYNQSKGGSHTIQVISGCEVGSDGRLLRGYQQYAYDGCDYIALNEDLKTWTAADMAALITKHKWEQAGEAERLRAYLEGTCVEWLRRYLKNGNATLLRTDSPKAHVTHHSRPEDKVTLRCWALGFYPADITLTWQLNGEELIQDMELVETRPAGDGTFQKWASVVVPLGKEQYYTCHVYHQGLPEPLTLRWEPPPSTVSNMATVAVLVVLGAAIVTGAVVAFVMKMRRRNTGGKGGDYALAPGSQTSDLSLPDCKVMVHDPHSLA
pIC50: −log10 of the molar value. Ends that are not written are not given here.

Consider the worked cases shown below.
[
  {
    "ordered-residues": "FSLGVLGM [NS2A8-15]",
    "pIC50": "> 5.70"
  },
  {
    "ordered-residues": "RMLINRFTM [NS5_237-245]",
    "pIC50": "> 5.70"
  }
]

Input: // fetch H-2K^b (Mus musculus) pIC50 for LAVTIMAIL [NS2A145-153]
Output: > 5.70

Input: // fetch H-2K^b (Mus musculus) pIC50 for TAIANQATV [NS4B66-74]
Output: > 5.70

Input: // fetch H-2K^b (Mus musculus) pIC50 for VSWTMKIL [Epitope E451-458]
Output: 6.34

Values compiled from paper PMC2674070.
